tested on: Hep-G2; assay: Anti-proliferation IC50, Hep-G2; assay type: cell-based; details: Homo sapiens, HepG2; Table 1, compounds of formula I; NI = no inhibition up to 500 μM; read-out: Hep-G2 (IC50)
The following compounds are shown together with reported IC50 values.
// note: answer is a bare numeric in µM

Reference set (3 entries):
{"columns": ["compound", "value_type", "quantitative_readout"],
 "data": [
  ["CCC1OC(=O)[C@H](C)[C@H](OC2C[C@@](C)(OC)[C@@H](O)[C@H](C)O2)[C@H](C)[C@@H](OC2O[C@H](C)C[C@H](N(C)CCCC#Cc3ccc(-n4cc(C)ccc4=O)cc3)[C@H]2O)[C@@](C)(OC)C[C@@H](C)C(=O)[C@H](C)[C@@H](O)[C@]1(C)O (stereo partly shown) [Compound 19c]", "IC50", 24],
  ["CCCCOC(=O)/C=C/C(=O)N(C)[C@@H]1C[C@H](C)O[C@H](O[C@@H]2[C@H](C)[C@H](O[C@H]3C[C@@](C)(OC)[C@@H](O)[C@H](C)O3)[C@H](C)C(=O)O[C@H](CC)[C@@](C)(O)[C@@H](O)[C@@H](C)C(=O)[C@H](C)C[C@@]2(C)OC)[C@H]1O", "IC50", 209],
  ["CCC1OC(=O)[C@H](C)[C@H](OC2C[C@@](C)(OC)[C@@H](O)[C@H](C)O2)[C@H](C)[C@@H](OC2O[C@H](C)C[C@H](N(C)CC#Cc3ccc(-n4cc(C)ccc4=O)cc3)[C@H]2O)[C@@](C)(OC)C[C@@H](C)C(=O)[C@H](C)[C@@H](O)[C@]1(C)O (stereo partly shown) [Compound 19a]", "IC50", 50.7]
]}

With those in mind, consider the next compound.
Reported IC50 for `CC[C@H]1OC(=O)[C@@H](C)[C@@H](O[C@@H]2C[C@](C)(OC)[C@H](O)[C@@H](C)O2)[C@@H](C)[C@@H](O[C@H]2O[C@@H](C)C[C@@H](N(C)C)[C@@H]2OC(=O)/C=C/C=C/c2ccc3c(c2)OCO3)[C@](C)(OC)C[C@@H](C)C(=O)[C@H](C)[C@H](O)[C@]1(C)O` : what is it? 5.6

----------
test system: Hep-G2; experiment: Anti-proliferation IC50, Hep-G2; type: cell-based; conditions: Homo sapiens, HepG2; Table 1, compounds of formula I; NI = no inhibition up to 500 μM; read-out: Hep-G2 (IC50)
value_type: IC50 (µM)
// note: answer is a bare numeric in µM

Reference set (2 entries):
{"columns": ["compound", "IC50, µM"],
 "data": [
  ["Cc1ccc(=O)n(-c2ccccc2)c1 [Pirfenidone (Pir), Pirfenidone, reference compound]", 10900],
  ["CCC1OC(=O)[C@H](C)[C@H](OC2C[C@@](C)(OC)[C@@H](O)[C@H](C)O2)[C@H](C)[C@@H](OC2O[C@H](C)C[C@H](N(C)Cc3cn(CCc4ccc(-n5cc(C)ccc5=O)cc4)nn3)[C@H]2O)[C@@](C)(OC)C[C@@H](C)C(=O)[C@H](C)[C@@H](O)[C@]1(C)O (some centres unmarked) [Compound 12b]", 122]
]}

With those in mind, consider the next compound.
For Hep-G2, provide IC50 of `CC[C@H]1OC(=O)[C@@H](C)[C@@H](O[C@H]2C[C@@](C)(OC)[C@@H](O)[C@H](C)O2)[C@@H](C)[C@@H](O[C@H]2O[C@@H](C)C[C@@H](N(C)Cc3ccc(-c4cn(CCCNC(=O)CCCC[C@H]5CCSS5)nn4)cc3)[C@@H]2O)[C@](C)(OC)C[C@@H](C)C(=O)[C@H](C)[C@H](O)[C@]1(C)O` please. 49.2

Values were extracted from patent US20240076293A1.
